- Tested on: MRSA (2658 RCMB)
- Experiment Description: MIC against MRSA (2658 RCMB), broth dilution
- Assay type: cell-based, Staphylococcus aureus
- Protocol Conditions: Staphylococcus aureus; Table 1; MRSA (2658 RCMB); read-out: MIC ± SD
Measurement Kind: MIC (µg/mL)
Quick note: give the figure in µg/mL, leave out the unit.

Given item Cc1nc(-c2ccc(/C=C/C3CCCC3)cc2)sc1-c1ccnc(N)n1 , the value recorded as its MIC is 3.12

Given item CCCCc1ccc(-c2nc(C)c(-c3ccnc(NC#N)n3)s2)cc1 , the value recorded as its MIC is 18.7

Given item Cc1nc(-c2ccc(C3=CCCC3)cc2)sc1-c1ccnc(N)n1 , the value recorded as its MIC is 3.12

###

Give measured half-life for each item. Keep answers brief.
- Experiment Description: Metabolic stability in human liver microsomes
- Type: in vitro ADME
- Protocol Conditions: pH 7.4, human liver microsomes, with NADPH, read-out: NADPH-dependent t1/2
Quick note: give the figure in min, leave out the unit.

Given item CCCCc1ccc(-c2nc(C)c(-c3ccnc(N)n3)s2)cc1 [Compound 8] , the value recorded as its half-life is 195

Given item CCCCc1ccc(-c2nc(C)c(-c3ccnc(NN)n3)s2)cc1 [Compound 17] , the value recorded as its half-life is 308

Given item CCCCc1ccc(-c2nc(C)c(-c3ccnc(NC(=N)N(C)C)n3)s2)cc1 [Compound 11] , the value recorded as its half-life is 243

###

- Experiment Description: Metabolic stability in human liver microsomes
- Type: in vitro ADME
- Protocol Conditions: pH 7.4, human liver microsomes, NADPH omitted, read-out: NADPH-free t1/2
- Description: The tested compounds were incubated in duplicate with human liver microsomes at 37° C. The reaction contained microsomal protein in 100 mM potassium phosphate, 2 mM NADPH, 3 mM MgCl2, pH 7.4. […] The samples were centrifuged to remove precipitated protein, and the supernatants were analyzed by LC/MS/MS to quantitate the remaining parent. […] Intrinsic clearance is calculated from the half-life and the protein concentrations: CLint=ln(2)/(T1/2 [microsomal protein]).
Give measured half-life for each item. Keep answers brief.

Given item CCCCc1ccc(-c2nc(C)c(-c3ccnc(N)n3)s2)cc1 , the value recorded as its half-life is > 1 h

Given item CCCCc1ccc(-c2nc(C)c(-c3ccnc(NC(=N)N(C)C)n3)s2)cc1 , the value recorded as its half-life is > 1 h

Given item CCCCc1ccc(-c2nc(C)c(-c3ccnc(NN)n3)s2)cc1 , the value recorded as its half-life is > 1 h

###

- Experiment Description: Metabolic stability in human liver microsomes
- Assay type: in vitro ADME
- Protocol Conditions: pH 7.4, human liver microsomes, NADPH omitted, read-out: NADPH-free Clint
Measurement Kind: microsomal CLint

Given item CCCCc1ccc(-c2nc(C)c(-c3ccnc(NN)n3)s2)cc1 [Compound 17] , the value recorded as its microsomal CLint is 0.5 µL/min/mg

Given item CCCCc1ccc(-c2nc(C)c(-c3ccnc(N)n3)s2)cc1 [Compound 8] , the value recorded as its microsomal CLint is 0.5 µL/min/mg

Given item CCCCc1ccc(-c2nc(C)c(-c3ccnc(NC(=N)N(C)C)n3)s2)cc1 [Compound 11] , the value recorded as its microsomal CLint is 0.5 µL/min/mg

###

Give measured melting point for each item. Keep answers brief.
Quick note: give the figure in °C, leave out the unit.

Given item Cc1nc(-c2ccc(C3=CCC(C)C3)cc2)sc1-c1ccnc(N)n1 (centres unmarked) , the value recorded as its melting point is 141

Given item Cc1nc(-c2ccc(/C=C/C3CCCCC3)cc2)sc1-c1ccnc(N)n1 , the value recorded as its melting point is 189

Given item Cc1nc(-c2ccc(-c3ccoc3)cc2)sc1-c1ccnc(N)n1 , the value recorded as its melting point is 161.2

Given item Cc1nc(-c2ccc(C3=CCCCC3)cc2)sc1-c1ccnc(N)n1 , the value recorded as its melting point is 140.4
